// provenance: patent US11992497B2

Assay: Hepatocyte stability and metabolite profiling
Type: in vitro ADME, monkey
Conditions: cryopreserved hepatocytes in suspension; Monkey cryopreserved hepatocytes
property: hepatocyte CLint (µL/min/1e6 cells)
Numbers only, in µL/min/1e6 cells.

Recorded hepatocyte CLint (compound `CCCCCc1cc(O)c(C/C=C(\C)CCC=C(C)C)c(O)c1` ): 122

---

Biological target: UGT2B15 (Homo sapiens)
Sequence (P54855 24-530): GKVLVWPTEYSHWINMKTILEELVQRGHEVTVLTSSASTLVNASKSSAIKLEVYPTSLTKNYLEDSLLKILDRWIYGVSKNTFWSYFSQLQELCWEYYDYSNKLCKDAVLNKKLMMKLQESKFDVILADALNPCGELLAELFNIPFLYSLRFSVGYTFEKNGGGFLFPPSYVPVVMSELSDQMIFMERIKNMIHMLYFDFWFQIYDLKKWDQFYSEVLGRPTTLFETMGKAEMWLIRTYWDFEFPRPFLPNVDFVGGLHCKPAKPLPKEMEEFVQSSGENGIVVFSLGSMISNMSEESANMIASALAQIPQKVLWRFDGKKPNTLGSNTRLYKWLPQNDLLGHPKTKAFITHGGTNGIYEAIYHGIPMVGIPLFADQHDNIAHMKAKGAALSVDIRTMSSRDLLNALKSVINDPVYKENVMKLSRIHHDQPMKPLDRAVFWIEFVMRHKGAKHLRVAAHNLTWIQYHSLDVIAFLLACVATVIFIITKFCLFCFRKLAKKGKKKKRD
Experiment: UGT reaction phenotyping, recombinant Supersomes
Settings: recombinant enzyme, pH 7.4
property: half-life at 1 µM (min)
One number for each entry, in min.

// below: answered compounds
{"compound": "CCCCCc1cc(O)c(C/C=C(\\C)CCC=C(C)C)c(OC)c1", "display.unit": "min", "half-life at 1 µM": 57.2}
{"compound": "CCCCCc1cc(O)c(C/C=C(\\C)CCC=C(C)C)c(O)c1", "display.unit": "min", "half-life at 1 µM": 47.6}

Switching to the query record.
Recorded half-life at 1 µM (compound O=c1cc(C(F)(F)F)c2ccc(O)cc2o1 [7-OH4trifluoromethylcoumarin, 7-hydroxy-4-trifluoromethylcoumarin] ): 24.9

---

Test: Quantification of CBG and CBG glucuronide in rat plasma (LC-MS/MS)
Format: in vivo, Sprague-Dawley rat
Settings: both sexes, Sprague-Dawley, rat, plasma, oral, 30 mg/kg, CBG 30 mg/kg oral gavage once; 15 min post Rx; read-out: CBG concentration in rat plasma (Day 1)
property: concentration at 15 min (ng/mL)
Numbers only, in ng/mL.

Recorded concentration at 15 min (compound `CCCCCc1cc(O)c(C/C=C(\C)CCC=C(C)C)c(O)c1` ): 3.8

---

Experiment: Hepatocyte stability and metabolite profiling
Assay type: in vitro ADME, minipig
Conditions: cryopreserved hepatocytes in suspension; Minipig cryopreserved hepatocytes
property: hepatocyte CLint
Please answer in the form of a number followed by its unit of measurement.

Recorded hepatocyte CLint (molecule CCCCCc1cc(O)c(C/C=C(\C)CCC=C(C)C)c(O)c1 [CBG, cannabigerol] ): 32.5 µL/min/1e6 cells

---

Assay: Hepatocyte stability and metabolite profiling
Type: in vitro ADME, human
Conditions: cryopreserved hepatocytes in suspension; Human cryopreserved hepatocytes
property: half-life (min)
Give bare numbers, in min.

Recorded half-life (molecule CCCCCc1cc(O)c(C/C=C(\C)CCC=C(C)C)c(O)c1 [CBG, cannabigerol] ): 22.6
